System: Saccharomyces cerevisiae;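 also: PSI is a weighted mean of sequencing reads over stability bins, variants kept only with over 10 reads, mCherry proximal and sfGFP distal, peptide attached via GGGS linker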
ASSAY_NAME: protein stability index of tFT-peptide fusion (C-terminal peptide) (PSI (0-1 scale)); higher = more stable (slower turnover)
CONDITION_DETAILS: genetic background: wild type; temperature: 30 C
READOUT_LABEL: protein stability index
A bare number is all that is needed in reply.

Note protein stability index for the sequence shown: LFRFVFLLFGFW
0.446

Note protein stability index for the sequence shown: AFPPVIPALFSV
0.697

Note protein stability index for the sequence shown: EGGVGGRAPRVR
0.747

Note protein stability index for the sequence shown: NTKEETKESRGR
0.713

Note protein stability index for the sequence shown: FFVIIPAKSWLG
0.546

Note protein stability index for the sequence shown: DRPNIGIKPKRA
0.613

Note protein stability index for the sequence shown: TPCSRMRPSLLF
0.709

Note protein stability index for the sequence shown: SSRLLRGGTGFL
0.722

Note protein stability index for the sequence shown: RTSRPVRLFRIH
0.402

Note protein stability index for the sequence shown: LRPGRSKHSSQA
0.721

Note protein stability index for the sequence shown: AWLWCVCWSIMR
0.395

Note protein stability index for the sequence shown: SVFVDNLAFSLD
0.708

Note protein stability index for the sequence shown: RVWRLIGFHVSS
0.713

Note protein stability index for the sequence shown: PGPTNSSLTASD
0.767

Note protein stability index for the sequence shown: EEWRRRSTKERR
0.641

Note protein stability index for the sequence shown: SHVLPHPGLSPP
0.655

Note protein stability index for the sequence shown: VGGDRVGPEPEC
0.718

Note protein stability index for the sequence shown: FGTATPPPTLPP
0.727

Note protein stability index for the sequence shown: DVLASSSVWFLI
0.624

Note protein stability index for the sequence shown: RRLNNTPPVENC
0.753

Note protein stability index for the sequence shown: PPIPPSAPLCPP
0.688

Note protein stability index for the sequence shown: IRPFSPAPPRYP
0.722

Note protein stability index for the sequence shown: RLGPSAPLFVHL
0.542

Note protein stability index for the sequence shown: GGGCRASSLFPE
0.664

Note protein stability index for the sequence shown: PPPPSVCPRFPI
0.785

Note protein stability index for the sequence shown: MLSPQIERGAGR
0.681

Note protein stability index for the sequence shown: SARLTPDLPAPS
0.642

Note protein stability index for the sequence shown: PRRPHDPFPAAP
0.686

Note protein stability index for the sequence shown: KKKLKRTIKKIA
0.481

Note protein stability index for the sequence shown: PSLFHHWSVLSP
0.785

Note protein stability index for the sequence shown: GFRFSERRFPGL
0.733

Note protein stability index for the sequence shown: LPPPVFPLRLSL
0.703

Note protein stability index for the sequence shown: PSQWLPSRSRTA
0.733

Note protein stability index for the sequence shown: RLSNIARRQENG
0.623

Note protein stability index for the sequence shown: SRPPTFPPFFPS
0.702

Note protein stability index for the sequence shown: GFVGTVHLKCIS
0.642

Note protein stability index for the sequence shown: ESAGESRREFGG
0.693

Note protein stability index for the sequence shown: NESLKHDCVKDT
0.735

Note protein stability index for the sequence shown: FFLRFGLFLFTL
0.421

Note protein stability index for the sequence shown: PPYAPPDHPPFR
0.699

Note protein stability index for the sequence shown: CFVFYALFGFAV
0.401
